# viscosity annotations
# procedure.text: xn = mol fraction of the nth substance listed
# assay.context: 298.15 K; 101 kPa; x1 = 0.6
± gives the uncertainty stated by the source.

[
  {
    "compound": "CC(C)(C)C(=O)O + CCCN(CCC)CCC",
    "viscosity": "11.43 ± 0.16 mPa·s"
  },
  {
    "compound": "OCCO + CCO",
    "viscosity": "5.986 ± 0.16 mPa·s"
  },
  {
    "compound": "S=C=S + Cc1ccccc1",
    "viscosity": "0.4217 ± 0.0055 mPa·s"
  },
  {
    "compound": "OCCO + CO",
    "viscosity": "5.022 ± 0.14 mPa·s"
  },
  {
    "compound": "S=C=S + ClC(Cl)(Cl)Cl",
    "viscosity": "0.4948 ± 0.0064 mPa·s"
  }
]

* * *

Catalogue of viscosity values
# procedure.text: xn = mol fraction of the nth substance listed
# assay.context: 298.15 K; 101 kPa; x1 = 0.2
± gives the uncertainty stated by the source.
recorded.endpoint: viscosity

[
  {
    "compound": "OCCO + CO",
    "measured.result": "1.245 ± 0.033 mPa·s"
  },
  {
    "compound": "CC(C)(C)C(=O)O + CCCN(CCC)CCC",
    "measured.result": "1.416 ± 0.015 mPa·s"
  },
  {
    "compound": "S=C=S + ClC(Cl)(Cl)Cl",
    "measured.result": "0.7079 ± 0.009 mPa·s"
  },
  {
    "compound": "S=C=S + Cc1ccccc1",
    "measured.result": "0.5063 ± 0.0065 mPa·s"
  },
  {
    "compound": "OCCO + CCO",
    "measured.result": "1.908 ± 0.051 mPa·s"
  }
]

* * *

# procedure.text: xn = mol fraction of the nth substance listed
# assay.context: 298.15 K; 101 kPa; x1 = 0.7
Kindly apply the following: satisfied if viscosity is less than 8 mPa·s, not satisfied in every other case.

[
  {
    "compound": "CC(C)(C)C(=O)O + CCCN(CCC)CCC",
    "qualitative.label": "not satisfied"
  },
  {
    "compound": "S=C=S + ClC(Cl)(Cl)Cl",
    "qualitative.label": "satisfied"
  },
  {
    "compound": "S=C=S + Cc1ccccc1",
    "qualitative.label": "satisfied"
  },
  {
    "compound": "OCCO + CO",
    "qualitative.label": "satisfied"
  }
]

* * *

# assay.context: 313.15 K; 100 kPa

[
  {
    "smiles.structure": "NCc1ccccc1",
    "viscosity / mPa·s": 1.262
  },
  {
    "smiles.structure": "CC[NH3+].O=[N+]([O-])[O-]",
    "viscosity / mPa·s": 22.67
  },
  {
    "smiles.structure": "CCOP(=O)([O-])OCC.CC[N+]1(C)CCOCC1",
    "viscosity / mPa·s": 1466
  },
  {
    "smiles.structure": "C=CCN=C=S",
    "viscosity / mPa·s": 0.592
  },
  {
    "smiles.structure": "CCCCCCCCCc1ccccc1",
    "viscosity / mPa·s": 2.094
  }
]

* * *

# procedure.text: xn = mol fraction of the nth substance listed
# assay.context: 298.15 K; 101 kPa; x1 = 0.5
Values of viscosity greater than or equal to 1 mPa·s map to t; values below map to f.

[
  {
    "molecule": "OCCO + CCO",
    "qualitative.label": "t"
  },
  {
    "molecule": "S=C=S + ClC(Cl)(Cl)Cl",
    "qualitative.label": "f"
  },
  {
    "molecule": "S=C=S + Cc1ccccc1",
    "qualitative.label": "f"
  },
  {
    "molecule": "CC(C)(C)C(=O)O + CCCN(CCC)CCC",
    "qualitative.label": "t"
  },
  {
    "molecule": "C=CCN=C=S + CCNc1ccccc1",
    "qualitative.label": "t"
  },
  {
    "molecule": "OCCO + CO",
    "qualitative.label": "t"
  },
  {
    "molecule": "O=[N+]([O-])c1cccc(O)c1 + CCCCCOC(C)=O",
    "qualitative.label": "t"
  }
]

* * *

# procedure.text: xn = mol fraction of the nth substance listed
# assay.context: 298.15 K; 101.33 kPa; x1 = 0.6

[
  {
    "molecule": "NCc1ccccc1 + CCC(C)CO",
    "viscosity, mPa·s": 2.435
  },
  {
    "molecule": "NCc1ccccc1 + CCCCCO",
    "viscosity, mPa·s": 2.25
  },
  {
    "molecule": "NCc1ccccc1 + CCC(C)(C)O",
    "viscosity, mPa·s": 2.223
  },
  {
    "molecule": "NCc1ccccc1 + CCCC(C)O",
    "viscosity, mPa·s": 2.11
  },
  {
    "molecule": "NCc1ccccc1 + CC(C)CCO",
    "viscosity, mPa·s": 2.284
  }
]

* * *

# procedure.text: xn = mol fraction of the nth substance listed
# assay.context: 298.15 K; 101 kPa; x1 = 0.8
Respond with 1 (yes) for viscosity values of 10 mPa·s and above, 0 (no) for values below.

[
  {
    "molecule": "OCCO + CO",
    "qualitative.label": "0 (no)"
  },
  {
    "molecule": "CC(C)(C)C(=O)O + CCCN(CCC)CCC",
    "qualitative.label": "1 (yes)"
  },
  {
    "molecule": "OCCO + CCO",
    "qualitative.label": "1 (yes)"
  },
  {
    "molecule": "S=C=S + ClC(Cl)(Cl)Cl",
    "qualitative.label": "0 (no)"
  },
  {
    "molecule": "S=C=S + Cc1ccccc1",
    "qualitative.label": "0 (no)"
  }
]

* * *

Listing of entries alongside the reported viscosity.
# procedure.text: xn = mol fraction of the nth substance listed
# assay.context: 298.15 K; 101.33 kPa; x1 = 0.1
± gives the uncertainty stated by the source.

[
  {
    "compound": "NCc1ccccc1 + CCCC(C)O",
    "viscosity": "3.179 ± 0.044 mPa·s"
  },
  {
    "compound": "NCc1ccccc1 + CCC(C)CO",
    "viscosity": "4.232 ± 0.059 mPa·s"
  },
  {
    "compound": "NCc1ccccc1 + CCCCCO",
    "viscosity": "3.257 ± 0.04 mPa·s"
  },
  {
    "compound": "NCc1ccccc1 + CCC(C)(C)O",
    "viscosity": "3.228 ± 0.041 mPa·s"
  }
]

* * *

# procedure.text: xn = mol fraction of the nth substance listed
# assay.context: 303.15 K; 101.33 kPa; x1 = 0.6
recorded.endpoint: viscosity (mPa·s)

[
  {
    "compound": "NCc1ccccc1 + CCCCCO",
    "measured.result": 1.971
  },
  {
    "compound": "NCc1ccccc1 + CCC(C)CO",
    "measured.result": 2.048
  },
  {
    "compound": "NCc1ccccc1 + CC(C)CCO",
    "measured.result": 1.937
  },
  {
    "compound": "NCc1ccccc1 + CCC(C)(C)O",
    "measured.result": 1.882
  },
  {
    "compound": "NCc1ccccc1 + CCCC(C)O",
    "measured.result": 1.765
  }
]

* * *

# procedure.text: xn = mol fraction of the nth substance listed
# assay.context: 308.15 K; 101.33 kPa; x1 = 0.1
Listed here are molecules together with their documented viscosity.

[
  {
    "molecule": "NCc1ccccc1 + CCC(C)(C)O",
    "unit.annotation": "mPa·s",
    "viscosity": 2.193
  },
  {
    "molecule": "NCc1ccccc1 + CCCC(C)O",
    "unit.annotation": "mPa·s",
    "viscosity": 2.199
  },
  {
    "molecule": "NCc1ccccc1 + CCCCCO",
    "unit.annotation": "mPa·s",
    "viscosity": 2.406
  },
  {
    "molecule": "NCc1ccccc1 + CCC(C)CO",
    "unit.annotation": "mPa·s",
    "viscosity": 2.453
  }
]

* * *

Each entry below carries its reported viscosity.
# assay.context: 298.15 K; 101 kPa
± gives the uncertainty stated by the source.

[
  {
    "compound": "CC(C)NC(C)C",
    "viscosity": "0.382 ± 0.06 mPa·s"
  },
  {
    "compound": "CN1CCNCC1",
    "viscosity": "1.87 ± 0.04 mPa·s"
  },
  {
    "compound": "CC(CC(C)(C)C)CP(=O)([O-])CC(C)CC(C)(C)C.CCCCCCCC[P+](C)(C)C (stereo not drawn)",
    "viscosity": "804 ± 50 mPa·s"
  }
]
